biological target: HIV-1 integrase (Human immunodeficiency virus type 1 group M subtype B, UniProt P04585); assay: HIV-1 integrase inhibition assay (radiolabeled duplex substrate corresponding to the U5 end of the HIV LTR); type: biochemical; conditions: Table 3, compounds of formula IV′; read-out: IC50

| molecular string | IC50 |
| --- | --- |
| O=C(CC[C@H](NC(=O)c1cc(O)c2cccc(O)c2n1)C(=O)NNC(=O)c1ccccc1O)NNC(=O)c1ccccc1O | > 9.7 µM |

====

// reported pIC50 per item
Biological target: HIV-1 integrase (Human immunodeficiency virus type 1 group M subtype B, UniProt P04585)
Experiment: HIV-1 integrase inhibition assay (radiolabeled duplex substrate corresponding to the U5 end of the HIV LTR)
Format: biochemical
Details: Table 4, compounds of formula I′; read-out: IC50
Description: For the purpose of Table 1 to 4, the HIV-1 integrase inhibition assay was carried out following a known procedure (Burke, Jr. T. R. et al., J. Med. Chem. 38, 4171-4178 (1995)). A suitable radiolabeled duplex substrate corresponding to the U5 end of the HIV LTR was used. For the purposes of Table 1 to 4 the HIV-1 integrase inhibition assay was based on a known procedure (Hazuda, D. J. et al., Nucleic Acids Res. 22 1121-1122 (1994)).
pIC50: −log10 of the molar value.
metric: pIC50

| compound | tested target | bound type | readout value |
| --- | --- | --- | --- |
| COc1ccc(NC(=O)[C@H](CCC(=O)NC(c2ccccc2)(c2ccccc2)c2ccccc2)NC(=O)c2cc3ccccc3n2Cc2ccc(F)cc2)cc1O [Example 109] | HIV-1 integrase (Human immunodeficiency virus type 1 group M subtype B, UniProt P04585) | = | 5.28 |
| O=C(C=Cc1ccc(OCc2ccc(F)cc2)c(OCc2ccc(F)cc2)c1)NCC(=O)NCCc1ccc(O)c(O)c1 [Example 100] | HIV-1 integrase (Human immunodeficiency virus type 1 group M subtype B, UniProt P04585) | = | 5.59 |
| O=C(C=Cc1ccc(OCc2ccc(F)cc2)c(OCc2ccc(F)cc2)c1)NCC(=O)NCCc1cccs1 [Example 98] | HIV-1 integrase (Human immunodeficiency virus type 1 group M subtype B, UniProt P04585) | < | 5.00 |
| CC(C)(C)OC[C@H](NC(=O)c1cccn1Cc1ccc(F)cc1)C(=O)NCCc1ccc(O)c(O)c1 [Example 93] | HIV-1 integrase (Human immunodeficiency virus type 1 group M subtype B, UniProt P04585) | < | 5.00 |

====

molecular target: HIV-1 integrase (Human immunodeficiency virus type 1 group M subtype B); assay: HIV-1 integrase inhibition assay (radiolabeled duplex substrate corresponding to the U5 end of the HIV LTR); type: biochemical
pIC50: −log10 of the molar value.
metric: pIC50

| compound | bound type | readout value |
| --- | --- | --- |
| CC(C)(C)OC[C@H](NC(=O)c1cc(O)c2cccc(O)c2n1)C(=O)NCCc1ccc(O)c(O)c1 [Example 72] | < | 5.00 |
| COc1ccc(OC)c(NC(=O)[C@H](CCC(=O)NC(c2ccccc2)(c2ccccc2)c2ccccc2)NC(=O)/C=C/c2ccc(O)c(O)c2)c1 [Example 82] | = | 5.59 |
| COc1ccc(OC)c(NC(=O)[C@H](CCC(=O)NC(c2ccccc2)(c2ccccc2)c2ccccc2)NC(=O)c2ccc[nH]2)c1 [Example 88] | < | 5.00 |
| O=C(N[C@@H](Cc1cn(C(c2ccccc2)(c2ccccc2)c2ccccc2)cn1)C(=O)NCCc1ccc(O)c(O)c1)c1ccc(O)c([N+](=O)[O-])c1 [Example 17] | = | 5.80 |
| O=C(CCc1ccc(O)c(O)c1)N[C@@H](Cc1cn(C(c2ccccc2)(c2ccccc2)c2ccccc2)cn1)C(=O)NCCc1ccc(O)c(O)c1 [Example 27] | < | 5.30 |
| O=C(N[C@@H](Cc1ccc(O)cc1)C(=O)NCc1ccc(O)c(O)c1)c1cc(O)c2cccc(O)c2n1 [Example 68] | < | 5.30 |
| O=C(C[C@H](NC(=O)c1ccc(O)c(O)c1)C(=O)NCCc1ccc(O)c(O)c1)OC1CCCCC1 [Example 1] | = | 4.47 |
| O=C(NCCCC[C@H](NC(=O)c1cc2cccc(O)c2cc1O)C(=O)NCCc1ccc(O)c(O)c1)c1cc2cccc(O)c2cc1O [Example 66] | < | 5.30 |
| O=C(N[C@@H](Cc1cn(C(c2ccccc2)(c2ccccc2)c2ccccc2)cn1)C(=O)NCCc1ccc(O)c(O)c1)c1ccc(O)c(O)c1 [Example 14] | = | 7.19 |
| O=C(C=Cc1ccsc1)NC(Cc1cn(-c2ccc([N+](=O)[O-])cc2[N+](=O)[O-])cn1)C(=O)NNC(=O)c1ccccc1O (stereo not drawn) [Example 81] | < | 5.00 |
| O=C(N[C@@H](Cc1c[nH]c2ccccc12)C(=O)NCCc1ccc(O)c(O)c1)c1cc2cccc(O)c2cc1O [Example 59] | = | 6.21 |
| CC(C)(C)OC(=O)CC[C@H](NC(=O)c1cc2ccccc2n1Cc1ccc(F)cc1)C(=O)NCCc1cccs1 [Example 102] | < | 5.00 |
| O=C(N[C@@H](Cc1cn(C(c2ccccc2)(c2ccccc2)c2ccccc2)cn1)C(=O)O)c1ccc(O)c(O)c1 [Example 29] | = | 5.80 |
| COc1ccc(OC)c(NC(=O)[C@H](CCC(=O)NC(c2ccccc2)(c2ccccc2)c2ccccc2)NC(=O)c2ccc(O)c(O)c2)c1 [Example 83] | = | 5.65 |
| COc1ccc(OC)c(NC(=O)[C@H](CCC(=O)NC(c2ccccc2)(c2ccccc2)c2ccccc2)NC(=O)c2cc3ccccc3[nH]2)c1 [Example 84] | = | 5.39 |
| O=C(NCCCC[C@H](NC(=O)c1ccc(O)c(O)c1)C(=O)O)c1ccc(O)c(O)c1 [Example 3, Nα,Nε-di-(3,4-Dihydroxybenzoyl)-L-lysine] | = | 4.85 |
| O=C(N[C@@H](Cc1c[nH]c2ccccc12)C(=O)NNC(=O)c1ccccc1O)c1cc(O)c2cccc(O)c2n1 [Example 77] | = | 5.33 |
| O=C(/C=C/c1ccc(O)c(O)c1)N[C@@H](Cc1c[nH]c2ccccc12)C(=O)NNC(=O)c1ccccc1O [Example 75] | = | 5.92 |
| Cc1ccc(C(NC(=O)CC[C@H](NC(=O)c2ccc(O)c(O)c2)C(=O)NCc2ccc(O)c(O)c2)(c2ccccc2)c2ccccc2)cc1 [Example 32] | = | 6.59 |
| CC(C)(C)OC[C@H](NC(=O)Cc1cccs1)C(=O)NCCc1ccc(O)c(O)c1 [Example 87] | < | 5.00 |
| O=C(N[C@@H](COCc1ccccc1)C(=O)NCCc1ccc(O)c(O)c1)c1ccc(O)c([N+](=O)[O-])c1 [Example 34] | = | 5.74 |
| O=C(N[C@@H](Cc1ccc(O)cc1)C(=O)NCCc1ccc(O)c(O)c1)c1cc2cccc(O)c2cc1O [Example 57] | = | 5.96 |
| O=C(N[C@@H](CO)C(=O)NCCc1ccc(O)c(O)c1)c1cc(O)c(O)c(O)c1 [Example 45] | = | 6.35 |
| COc1ccc(OC)c(C=CC(=O)N[C@@H](COC(C)(C)C)C(=O)NCCc2ccc(O)c(O)c2)c1 [Example 44] | < | 5.00 |
| CC(C)(C)OC(=O)C[C@H](NC(=O)c1cc(O)c2cccc(O)c2n1)C(=O)NCCc1ccc(O)c(O)c1 [Example 62] | < | 5.30 |
| O=C(C=Cc1ccc(O)c(O)c1)NC(Cc1cn(Cc2ccccc2)cn1)C(=O)NCCc1ccc(O)c(O)c1 (stereo not drawn) [Example 40] | = | 6.08 |
| O=C(N[C@@H](Cc1ccc(O)c(O)c1)C(=O)NCCc1ccc(O)c(O)c1)c1ccc(O)c([N+](=O)[O-])c1 [Example 15] | = | 6.36 |

Provenance of the data: patent US6528655B1
